test system: Staphylococcus aureus; assay: Antimicrobial activity against macrolide-sensitive Staphylococcus aureus PK1; type: functional
Entries and their measured MIC follow.

- CC[C@H]1OC(=O)[C@H](C)[C@@H](O[C@H]2C[C@@](C)(OC)[C@@H](OC(=O)CCNCCNc3cc4c(cc3F)c(=O)c(C(=O)O)cn4C3CC3)[C@H](C)O2)[C@H](C)[C@@H](O[C@@H]2O[C@H](C)C[C@H](N(C)C)[C@H]2O)[C@](C)(O)C[C@@H](C)NC(=O)[C@H](C)[C@@H](O)[C@]1(C)O: 0.5 µg/mL

We now examine a further compound.
# input Which value of MIC has been reported for CC[C@H]1OC(=O)[C@H](C)C(=O)[C@H](C)[C@@H](O[C@@H]2O[C@H](C)C[C@H](N(C)C)[C@H]2O)[C@](C)(OC)C[C@@H](C)C(=O)[C@H](C)[C@H]2N(CCCCn3cnc(-c4cccnc4)c3)C(=O)O[C@]12C [TELITHROMYCIN] in the records?
# output 0.125 µg/mL
